molecular target: CDK9 (Homo sapiens, UniProt P50750); construct: full-length human kinases from Carna Biosciences; purchased Carna Biosciences 04-110; test: Kinase TR-FRET assay, CDK9; format: biochemical; conditions: full-length human kinase, 10 μM ATP
Sequence (P50750 whole entry): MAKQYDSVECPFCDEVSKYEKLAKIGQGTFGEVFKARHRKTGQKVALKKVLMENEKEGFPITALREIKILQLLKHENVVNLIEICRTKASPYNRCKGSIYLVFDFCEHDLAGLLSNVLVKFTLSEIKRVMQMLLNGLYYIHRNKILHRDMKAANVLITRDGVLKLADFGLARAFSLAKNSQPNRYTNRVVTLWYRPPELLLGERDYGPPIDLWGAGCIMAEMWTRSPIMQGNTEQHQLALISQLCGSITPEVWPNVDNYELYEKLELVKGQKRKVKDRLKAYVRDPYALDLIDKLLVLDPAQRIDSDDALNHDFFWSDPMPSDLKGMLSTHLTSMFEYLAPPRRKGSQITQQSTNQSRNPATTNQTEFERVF
Sequence (O60563 whole entry partner): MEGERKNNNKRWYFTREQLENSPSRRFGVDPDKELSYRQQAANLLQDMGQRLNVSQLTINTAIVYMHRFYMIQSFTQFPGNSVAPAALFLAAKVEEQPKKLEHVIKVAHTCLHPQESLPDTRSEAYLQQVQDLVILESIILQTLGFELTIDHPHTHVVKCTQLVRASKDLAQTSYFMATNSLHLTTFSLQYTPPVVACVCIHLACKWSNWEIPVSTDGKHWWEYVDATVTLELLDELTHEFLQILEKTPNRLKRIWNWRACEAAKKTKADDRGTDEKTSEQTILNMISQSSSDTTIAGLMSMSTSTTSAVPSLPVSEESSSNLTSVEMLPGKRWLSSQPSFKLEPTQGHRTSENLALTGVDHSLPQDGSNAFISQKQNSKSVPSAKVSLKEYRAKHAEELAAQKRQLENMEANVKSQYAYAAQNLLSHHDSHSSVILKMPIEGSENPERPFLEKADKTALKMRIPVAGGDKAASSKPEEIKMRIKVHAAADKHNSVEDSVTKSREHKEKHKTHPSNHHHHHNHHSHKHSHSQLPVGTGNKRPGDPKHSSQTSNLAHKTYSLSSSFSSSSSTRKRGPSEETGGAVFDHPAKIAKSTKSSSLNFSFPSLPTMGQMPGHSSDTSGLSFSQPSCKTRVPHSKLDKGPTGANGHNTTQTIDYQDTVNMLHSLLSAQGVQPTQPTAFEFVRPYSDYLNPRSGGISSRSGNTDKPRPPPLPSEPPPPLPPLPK
outcome_measure: IC50

compound="Cc1nc2ccc(-c3cc(N)nc(N)c3)nc2n1C[C@H](C)Oc1ccccn1 (single isomer, unassigned) [Example 174]" reading="> 3 µM"
compound="Cc1nc2ccc(-c3cc(N)nc(N)c3)nc2n1CCc1ccc(Cl)cc1Cl [Example 59]" reading="> 10 µM"
compound="CCCCn1c(C)nc2ccc(-c3cc(N)nc(NCc4ccccc4)c3)nc21 [Example 231]" reading="> 10 µM"
compound="Cc1nc2ccc(-c3cc(N)nc(N)c3)nc2n1CCOc1c(F)cccc1F [Example 212]" reading="> 10 µM"
compound="Cc1nc2ccc(-c3cc(N)nc(N)c3)nc2n1C[C@@H](C)Oc1ccccn1 (single isomer, unassigned) [Example 175]" reading="> 3 µM"
compound="CCCC(C)n1c(C)nc2ccc(-c3cc(N)nc(N)c3)nc21 (stereo not shown) [Example 64]" reading="> 10 µM"
compound="Cc1nc2ccc(-c3cc(N)nc(N)c3)nc2n1CCOc1cccc2ccccc12 [Example 27]" reading="> 10 µM"
compound="Cc1nc2ccc(-c3cc(N)nc(N)c3)nc2n1C[C@@H](C)Oc1ccccc1 (single isomer, unassigned) [Example 106]" reading="> 3 µM"
compound="Cc1nc2ccc(-c3cc(N)nc(N)c3)nc2n1CCCN1CCCC1=O [Example 13]" reading="> 10 µM"
compound="CCCCn1c(CCC)nc2ccc(-c3cc(N)nc(N)c3)nc21 [Example 161]" reading="> 10 µM"

* * *

molecular target: DYRK1A (Homo sapiens); assay: Kinase TR-FRET assay, DYRK1A; assay type: biochemical; set-up: full-length, wild-type human DYRK1A (NM_001396) with an HA tag; expressed in transfected cells; host or cells: human U2-OS osteosarcoma cells, transient transfection of a pcDNA3.1 plasmid; conditions: full-length human kinase, 10 μM ATP
Recorded IC50 values for a group of molecules are listed next.
outcome_measure: IC50 (µM)

mol_smiles=CCCc1nc2ccc(-c3cc(N)nc(N)c3)nc2n1C1CCCC1 reading=0.003
mol_smiles=Cc1nc2ccc(-c3cc(N)nc(N)c3)nc2n1CCc1ccsc1 reading=0.004
mol_smiles=Cc1nc2ccc(-c3cc(N)nc(N)c3)nc2n1CC(C)C reading=0.009
